- method description: protein stability index of a GFP-peptide fusion (yeast GPS) (PSI 1-4); higher = more stable; sorted into four equal gates, so the index is relative within each strain
- condition info: ubr1∆
attribute measured: protein stability index

{"polymer sequence": "LLAVAIAASYHYPEIED [RPP0]", "recorded measurement": 1.91}
{"polymer sequence": "TGAYIANRVTDKLTRVH [PRE3]", "recorded measurement": 1.54}
{"polymer sequence": "IVMQLRKCCNHPYLFEG [ISW2]", "recorded measurement": 2.78}
{"polymer sequence": "FQFFPKELDALQEKEQL [ISW2]", "recorded measurement": 2.97}
{"polymer sequence": "QGTNSVPNSIGNIFSNI [SNF5]", "recorded measurement": 2.98}
{"polymer sequence": "TPVVLATPIPEEVQQAQ [RPS5]", "recorded measurement": 2.83}
{"polymer sequence": "KLFTTNELMRWPIVQKT [RPN5]", "recorded measurement": 1.48}
{"polymer sequence": "KVIEQPITSETAMKKVE [RPL25]", "recorded measurement": 2.93}
{"polymer sequence": "LKDLNLTVSIKIALMNI [RGR1]", "recorded measurement": 1.21}
{"polymer sequence": "YNEFLYSKAGREELERV [QCR8]", "recorded measurement": 2.98}
{"polymer sequence": "QERQRQIQKNGPEITPE [PRP8]", "recorded measurement": 2.85}
{"polymer sequence": "NIALVSKLRNNIRSQLL [SRP54]", "recorded measurement": 2.61}
{"polymer sequence": "ADAVTKDLKLRREDEII [REC8]", "recorded measurement": 3.03}
{"polymer sequence": "DVKKRTYEAIDVPGREL [RPB2]", "recorded measurement": 3.57}
{"polymer sequence": "GNAKESKALLREISNFS [SRP72]", "recorded measurement": 3.01}
{"polymer sequence": "ASSGPRYIVGVRNSVDR [RPT4]", "recorded measurement": 1.37}
{"polymer sequence": "NNSNSNNNSSNEKEQLS [SEC65]", "recorded measurement": 2.76}
{"polymer sequence": "GLIPYPHHNQSPRNTYQ [RET1]", "recorded measurement": 2.93}
{"polymer sequence": "ILDNTENYDDTELRQLF [DSN1]", "recorded measurement": 3.29}
{"polymer sequence": "KNLNPASSSPSSTDFST [ECM29]", "recorded measurement": 2.91}
{"polymer sequence": "LLHEMTQTYMQMIELNR [GRR1]", "recorded measurement": 1.68}
{"polymer sequence": "LGSLTVEDYLSSVTSDS [RPC82]", "recorded measurement": 3.2}
{"polymer sequence": "YINVNPQEETITFLIEK [ECM29]", "recorded measurement": 3.17}
{"polymer sequence": "KMPGGFTITVARKYLQT [FAS2]", "recorded measurement": 1.27}
{"polymer sequence": "RIMSRNFYLKRFISDLL [SWI1]", "recorded measurement": 1.54}
{"polymer sequence": "ITFLIEKAKEMIRLLGS [ECM29]", "recorded measurement": 1.7}
{"polymer sequence": "HENYIQDDDFPLDDAGT [MCD1]", "recorded measurement": 3}
{"polymer sequence": "TNQIFQSRRYNLRRHSD [SIN4]", "recorded measurement": 3.08}
{"polymer sequence": "RLYLKDQTNHIESDSIL [ECM29]", "recorded measurement": 2.62}
{"polymer sequence": "QGSMSERPPYILNSYGV [SIR2]", "recorded measurement": 2.87}
{"polymer sequence": "SVFDATSDPVMHKQLAY [RPN1]", "recorded measurement": 1.96}

Values from the supplement of paper PMC9732359
